Molecular target: Acetylcholinesterase (Homo sapiens)
Sequence (P22303 whole entry): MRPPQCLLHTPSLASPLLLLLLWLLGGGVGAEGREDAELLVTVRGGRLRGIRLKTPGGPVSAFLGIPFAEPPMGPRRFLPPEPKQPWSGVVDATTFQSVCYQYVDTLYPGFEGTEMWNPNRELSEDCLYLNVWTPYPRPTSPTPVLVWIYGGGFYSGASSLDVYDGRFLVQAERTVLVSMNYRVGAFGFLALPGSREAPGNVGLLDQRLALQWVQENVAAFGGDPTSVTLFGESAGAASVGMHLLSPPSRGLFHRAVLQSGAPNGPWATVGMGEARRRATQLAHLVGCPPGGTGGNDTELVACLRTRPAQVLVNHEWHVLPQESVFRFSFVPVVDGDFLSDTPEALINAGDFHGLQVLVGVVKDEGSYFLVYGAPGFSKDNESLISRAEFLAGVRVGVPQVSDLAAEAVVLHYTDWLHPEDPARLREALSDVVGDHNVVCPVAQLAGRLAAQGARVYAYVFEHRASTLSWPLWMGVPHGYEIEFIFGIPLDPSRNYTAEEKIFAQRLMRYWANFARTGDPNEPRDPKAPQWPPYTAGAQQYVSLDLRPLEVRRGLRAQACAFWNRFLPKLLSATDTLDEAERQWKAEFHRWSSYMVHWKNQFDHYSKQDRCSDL
Assay: Inhibition of AChE in human Erythrocyte incubated for 20 mins by Ellman reagent based spectrophotometry
Reported Metric: IC50
# answer = value followed by unit

State its IC50: "C=C(C)[C@]1(O)CC[C@@]2(C)C3=Cc4c(cc(-c5cccnc5)oc4=O)O[C@]3(C)[C@@H](O)C[C@@H]2[C@@]12CCC(=O)OC2"
13.9 µM
